- Tested on: S. frugiperda 80S ribosomes
- test method notes: Inhibition of larval Ae. aegypti late trypsin translation in TnT T7 insect cell extract
- Format: biochemical, Spodoptera frugiperda
- condition: TnT T7 insect cell extract from S. frugiperda Sf21, pFA25A ICE T7 flexi-late larval trypsin, [3H]leucine, 30 °C, 4 h, AeaTMOF 0.01–750 μM; mean of three determinations; linear regression; read-out: IC50, inhibition of Ae. aegypti late larval [3H]trypsin biosynthesis
Ends that are not written are not given here.
assay readout: IC50 (nM)
Output spec: scalar in nM, unitless text.

Entry YDPAPPPPPP [AeaTMOF] : reported IC50 = ?
1800
